// data source = patent US20140309265A1

biological target: His-BIR3 (241-356, XIAP) (Homo sapiens, UniProt P98170); construct: additions of His-BIR3 (241-356, XIAP), fluorescein labeled SMAC peptide; test: XIAP-BIR3/SMAC Homogeneous Time Resolved Fluorescence (HTRF) Assay; conditions: Table 4
Sequence (P98170 241-356): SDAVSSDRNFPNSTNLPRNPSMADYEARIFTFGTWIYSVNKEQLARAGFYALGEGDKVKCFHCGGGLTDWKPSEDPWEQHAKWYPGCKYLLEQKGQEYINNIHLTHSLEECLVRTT
pIC50: −log10 of the molar value.
value_type: pIC50

Ask | Name the recorded pIC50 for CN[C@@H](C)C(=O)N[C@H](C(=O)N1C[C@@H]2C[C@H]1C(=O)N[C@@H](Cc1ccc3ccccc3c1)C(=O)N[C@H](C(=O)O)Cc1ccc(cc1)OCc1cn(nn1)[C@H]1C[C@@H](C(=O)N[C@@H](Cc3ccc4ccccc4c3)C(=O)N[C@H](C(=O)NCc3nnn[nH]3)Cc3ccc(cc3)OCc3cn2nn3)N(C(=O)[C@@H](NC(=O)[C@H](C)NC)C(C)(C)C)C1)C(C)(C)C .
Reply | > 8.00

Ask | Note, next up: CN[C@@H](C)C(=O)N[C@H](C(=O)N1C[C@@H]2C[C@H]1C(=O)N[C@@H](Cc1ccc3ccccc3c1)C(=O)N[C@H](C(=O)O)Cc1ccc(cc1)OCc1cn(nn1)[C@H]1C[C@@H](C(=O)N[C@@H](Cc3ccc4ccccc4c3)C(=O)N[C@H](C(=O)NCC(=O)O)Cc3ccc(cc3)OCc3cn2nn3)N(C(=O)[C@@H](NC(=O)[C@H](C)NC)C(C)(C)C)C1)C(C)(C)C
Reply | > 8.00

Ask | Try the compound CNC(C)C(=O)NC(C(=O)N1CC2CC1C(=O)NC(Cc1ccc3ccccc3c1)C(=O)NC(C(=O)O)Cc1ccc(cc1)OCc1cn(nn1)C1CC(C(=O)NC(Cc3ccc4ccccc4c3)C(=O)NC(C(=O)O)c3ccc(cc3)OCc3cn2nn3)N(C(=O)C(NC(=O)C(C)NC)C(C)(C)C)C1)C(C)(C)C (stereo not drawn)
Reply | > 8.00

---

target: His-BIR3 (241-356, XIAP) (Homo sapiens, UniProt P98170); construct: additions of His-BIR3 (241-356, XIAP), fluorescein labeled SMAC peptide; test: XIAP-BIR3/SMAC Homogeneous Time Resolved Fluorescence (HTRF) Assay; conditions: Table 4
pIC50: −log10 of the molar value.
value_type: pIC50

Ask | Quick one: pIC50 for CN[C@@H](C)C(=O)N[C@H](C(=O)N1C[C@@H]2C[C@H]1C(=O)N[C@@H](Cc1ccc3ccccc3c1)C(=O)N[C@H](C(=O)O)Cc1ccc(cc1)OCc1cn(nn1)[C@H]1C[C@@H](C(=O)N[C@@H](Cc3ccc4ccccc4c3)C(=O)N[C@H](C(=O)N(C)C)Cc3ccc(cc3)OCc3cn2nn3)N(C(=O)[C@@H](NC(=O)[C@H](C)NC)C(C)(C)C)C1)C(C)(C)C ?
Reply | > 8.00

Ask | Okay, and CN[C@@H](C)C(=O)N[C@H](C(=O)N1C[C@@H]2C[C@H]1C(=O)N[C@@H](Cc1ccc3ccccc3c1)C(=O)N[C@H](C(=O)O)Cc1ccc(cc1)OCc1cn(nn1)[C@H]1C[C@@H](C(=O)N[C@@H](Cc3ccc4ccccc4c3)C(=O)N[C@H](C(=O)NCCC(=O)O)Cc3ccc(cc3)OCc3cn2nn3)N(C(=O)[C@@H](NC(=O)[C@H](C)NC)C(C)(C)C)C1)C(C)(C)C ?
Reply | > 8.00

Ask | What do you get for CN[C@@H](C)C(=O)N[C@H](C(=O)N1C[C@@H]2C[C@H]1C(=O)N[C@@H](Cc1ccc3ccccc3c1)C(=O)N[C@H](C(=O)O)Cc1ccc(cc1)OCc1cn(nn1)[C@H]1C[C@@H](C(=O)N[C@@H](Cc3ccc4ccccc4c3)C(=O)N[C@H](C(=O)O)Cc3ccc(cc3)OCc3cn2nn3)N(C(=O)[C@@H](NC(=O)[C@H](C)NC)C23CC4CC(CC(C4)C2)C3)C1)C12CC3CC(CC(C3)C1)C2 ?
Reply | 7.00 to 8.00
